Test system: Amaranthus retoflexus (AMARE)
METHOD: Pre-emergence herbicidal glasshouse test
Assay type: in vivo
CONDITIONS USED: 250 g/ha, evaluated after 13 days
// reported percentage damage caused to the plant, five-point scale, AMARE per item

- Cc1cc(Oc2cccc(Br)c2-c2cc(C(F)F)no2)ncn1: 2 (2=21-40%)
- CNc1ncnc(Oc2cccc(F)c2-c2cc(C(F)F)no2)c1Cl: 2 (2=21-40%)
- CNc1cc(Oc2cccc(F)c2-c2cc(C(F)F)no2)ncn1: 2 (2=21-40%)
- COc1cc(Oc2cccc(Br)c2-c2cc(C(F)F)no2)ncn1: 5 (5=81-100%)
- Cc1cc(Oc2cccc(Cl)c2-c2cc(C(F)F)no2)ncn1: 4 (4=61-80%)

Task: Returns the measured percentage damage caused to the plant, five-point scale, AMARE for the input molecule. Input: COc1cc(Oc2cccc(Cl)c2-c2cc(C(F)F)no2)ncn1
Output: 5 (5=81-100%)

Task: COc1cc(Oc2cccc(F)c2-c2cc(C(F)F)no2)ncn1 ?
Output: 5 (5=81-100%)

Task: Cc1ncnc(Oc2cccc(F)c2-c2cc(C(F)F)co2)c1F ?
Output: 4 (4=61-80%)
